# Target under test: T1, ErbB3-mFc (human)
# T1 construct: Dimeric soluble ErbB3; also called hErbB3.mFc
# T1 chain: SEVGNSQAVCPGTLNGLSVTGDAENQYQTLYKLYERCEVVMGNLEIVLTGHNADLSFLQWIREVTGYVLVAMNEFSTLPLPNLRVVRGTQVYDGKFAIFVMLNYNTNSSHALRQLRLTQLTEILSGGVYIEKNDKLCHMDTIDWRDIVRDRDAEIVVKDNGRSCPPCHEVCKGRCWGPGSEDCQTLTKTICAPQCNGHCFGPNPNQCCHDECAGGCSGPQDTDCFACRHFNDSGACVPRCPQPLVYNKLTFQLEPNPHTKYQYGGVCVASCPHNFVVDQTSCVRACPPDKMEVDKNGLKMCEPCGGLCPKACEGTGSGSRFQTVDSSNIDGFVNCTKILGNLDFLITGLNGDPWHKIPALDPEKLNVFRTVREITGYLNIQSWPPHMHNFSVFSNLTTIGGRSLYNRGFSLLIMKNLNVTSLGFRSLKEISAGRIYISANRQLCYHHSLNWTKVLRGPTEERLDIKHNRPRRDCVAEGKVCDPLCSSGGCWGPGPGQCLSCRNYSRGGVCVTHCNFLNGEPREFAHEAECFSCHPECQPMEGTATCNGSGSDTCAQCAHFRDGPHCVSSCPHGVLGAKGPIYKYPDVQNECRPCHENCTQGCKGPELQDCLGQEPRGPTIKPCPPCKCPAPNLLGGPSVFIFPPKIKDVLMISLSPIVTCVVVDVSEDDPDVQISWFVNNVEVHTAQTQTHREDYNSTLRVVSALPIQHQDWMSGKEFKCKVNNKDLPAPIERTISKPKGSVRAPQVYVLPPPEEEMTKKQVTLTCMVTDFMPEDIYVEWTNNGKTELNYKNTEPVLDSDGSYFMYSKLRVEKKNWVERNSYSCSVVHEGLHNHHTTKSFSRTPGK
# Experimental details: blocking ELISA: antibody (0-50 nM) + 50 pM ErbB3-mFc, binding to coated neuregulin1b
Class satisfied: Maximal Blocking (%) at least 90%. Class not satisfied: Maximal Blocking (%) below 90%.

(Q) Is Maximal Blocking (%) for H4H2138P (antibody, human IgG4, V domains shown, Human IgG4 Fc (prefix H4H)) VH: QVQLQESGPGLVKPSQTLSLTCTVSGGSINSGGYYWSWIRQHPGKGLEWIGYISYSGNTNYNPSLKSRVTISVDTSKNQFSLTLTSVTAADTAVYYCARDSDVDTGLVDGFDVWGQGTMVTVSS VL: DIVMTQSPSSVSASVGDRVTITCRASQGVSSWLAWYQQKPGKAPKLLIYTTSSLQSGVPSRFSGSGSGTDFTLTISSLQPEDFATYYCQQSNSFPFTFGPGTKVEIK at or above 90%?
(A) satisfied

(Q) Is Maximal Blocking (%) for H4H2151P (antibody, human IgG4, V domains shown, Human IgG4 Fc (prefix H4H)) VH: QVQLVESGGGVVQPGRSLRLSCAASGFTFSNYGMHWVRQAPGKGLEWVARIWYDGSNKYYADSVKGRFTISRDSSKNTLYLQMNSLRAEDTAVYYCAREGEQNLDYYPLDVWGQGTTVTVSS VL: DIVMTQSPSSLSASVGDRVTITCRASQDIRNDLGWYQQKPGKAPKLLIYAASSLQTGVPSRFSGSVSGTDFTLTISSLQPEDFATYYCLQDYTYPLTFGGGTKVEIK at or above 90%?
(A) not satisfied

(Q) Is Maximal Blocking (%) for H4H2084P (antibody, human IgG4, V domains shown, Human IgG4 Fc (prefix H4H)) VH: QVQLVESGGGVVQSGKSLRLSCVASGFTFSNYGMHWVRQTPGKGLEWVARIWFDGTNKYYTDSVKGRFTLSRDSSKNTLYLQMNSLRAEDTAVYFCAREESLELDHYVMDVWGQGTTVTVSS VL: AIQMTQSPSSLSASVGDRVTITCRASQDIRDDLGWFQQKPGKAPNLLIYAASSLQSGVPSRFSGSGSGTDFTLTISSLQPEDFATYYCLQDYNYPLTFGGGTKVEIKR at or above 90%?
(A) satisfied

(Q) Is Maximal Blocking (%) for H4H2147P (antibody, human IgG4, V domains shown, Human IgG4 Fc (prefix H4H)) VH: QVQLVESGGGLVKPGGSLRLSCAASGFTFSDFNMGWIRQAPGKGLEWVSHISGSGNVIYYADSVKGRFAISRDNGKNSLYLQVNSLRAEDTAVYYCARDIGDSDAFDIWGQGTMVTVSS VL: DIQLTQSPSFLSASVGDRVTITCWASQDISSYLAWYQQKPGKAPKLLIYGASTLESGVPSRFSGSGSGTEFTLTISSLQPEDVATYYCQQLNTYPLTFGGGTKVEIKR at or above 90%?
(A) satisfied

(Q) Is Maximal Blocking (%) for H4H2092P (antibody, human IgG4, V domains shown, Human IgG4 Fc (prefix H4H)) VH: EVQLVESGGGVVRPGGSLRLSCAASGFTFEDYGMNWVRQVPGKGLEWVSGTNWNGGITGYTGSVKGRFTISRDNAKNSLYLQMNSLRAEDTALYHCARDSGDQDAFDIWGQGTMVTVSS VL: DIQLTQSPSFLSASVGDRVTITCWASQDISSYLAWYQQKPGKAPKLLIYAASTFQSGVPSRFSGSGSGTEFTLTISNLQPEDFATYYCQQLDSYPLSFGGGTKVEIKR at or above 90%?
(A) satisfied

(Q) Is Maximal Blocking (%) for H4H2140P (antibody, human IgG4, V domains shown, Human IgG4 Fc (prefix H4H)) VH: EVQLVESGGGLVQPGGSLRLSCAASGFSVSYYDMHWVRQVTGKGLEWVSAIGPAGDTYYPGSVKGRFTISREDATNSLYLQIHSLGAGDTAVYYCAREGAIAARPDDYYGMDVWGQGTTVTVSS VL: DIQLTQSPSFLSASVGDRVTITCWASQDISSYLAWYQQKPGKAPKLLIYAASTLQSGVPSRFSGSGSGTEFTLTISSLQPEDFATYYCQQLNSYPLTFGGGTKVEIKR at or above 90%?
(A) not satisfied

(Q) Is Maximal Blocking (%) for H4H2132P (antibody, human IgG4, V domains shown, Human IgG4 Fc (prefix H4H)) VH: EVQLVESGGGVVRPGGSLRLSCAASGFTFDDYGMSWVRQFPGKGLEWVSSIDGNGGNTGYSDSVKGRFTISRDNAKNSLHLQMNSLRAEDTALYHCARDPDYDSVWGNYRPFDYWGQGTLVTVSS VL: DIVMTQSPDSLAVSLGERATINCKSSQSVLSSSNDNNYLAWFQQKPGQPPNLLIYWASTRDSGVPDRFSASGSGTDFTLAISSLQAEDVAVYYCHQYYSSPPTFGQGTKVEIKR at or above 90%?
(A) satisfied

The measured values listed here are drawn from patent US20140072563A1.
